Here the recorded conversion % is given for each entry.
Target: MraYBS (Bacillus subtilis)
Construct: MBP; made in house
Sequence (Q03521 whole entry): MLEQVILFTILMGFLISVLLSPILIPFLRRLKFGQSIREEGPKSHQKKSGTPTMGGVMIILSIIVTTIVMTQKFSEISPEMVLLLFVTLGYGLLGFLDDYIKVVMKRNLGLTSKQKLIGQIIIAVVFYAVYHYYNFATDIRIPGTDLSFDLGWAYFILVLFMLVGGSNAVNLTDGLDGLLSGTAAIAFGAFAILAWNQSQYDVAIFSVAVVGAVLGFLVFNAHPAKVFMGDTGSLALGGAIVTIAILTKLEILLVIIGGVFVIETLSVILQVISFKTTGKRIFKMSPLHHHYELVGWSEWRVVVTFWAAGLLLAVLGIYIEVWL
Assay: HPLC-based MraY functional assay (substrate activity)
Assay type: biochemical
Details: lipid phosphates 200 μM, NBD-Park's nucleotide (6) 10 μM, MraYBS 10 μg/mL, 37 °C, 1 h; from consumption of 6; n = 3, average ± SD
Respond with the bare value in %.

Solved entries:
compound="CC(C)=CCC/C(C)=C/CC/C(C)=C/CC/C(C)=C/CC/C(C)=C/CC/C(C)=C/CC/C(C)=C/CO [Heptaprenol, reference compound]" measured_parameter="conversion %" test_value=55
compound="CC(C)=CCC/C(C)=C/CC/C(C)=C/CC/C(C)=C/CC/C(C)=C/CC/C(C)=C/CO [Hexaprenol, reference compound]" measured_parameter="conversion %" test_value=27
compound="CC(C)=CCCC(C)=CCCC(C)=CCCC(C)=CCO [Tetraprenol, reference compound]" measured_parameter="conversion %" test_value=16

Q. Recorded conversion % of CC(C)=CCC/C(C)=C/CC/C(C)=C/CC/C(C)=C/CC/C(C)=C/CC/C(C)=C/CC/C(C)=C/CC/C(C)=C/CC/C(C)=C/CO [Solanesol, reference compound] , please.
A. 12

Q. Recorded conversion % of CC(C)=CCC/C(C)=C/CC/C(C)=C/CC/C(C)=C/CC/C(C)=C/CC/C(C)=C/CC/C(C)=C/CC/C(C)=C/CC/C(C)=C/CC/C(C)=C/CC/C(C)=C/CO [Undecaprenol, reference compound] , please.
A. 96

* * *

Target: MraYBS (Bacillus subtilis)
Construct: MBP; made in house
Assay: Biolayer interferometry-based (BLI) binding assay
Protocol: MraYBS binding was measured in a biolayer interferometry-based binding assay on Octet Red96® instrument (ForteBio, Inc.). The biotinylation of MraYBS was performed with using EZ-Link® Sulfo-NHS-LC-LC-Biotin Kit (Thermo Fisher Scientific, Inc.). […] Comparing to the non-biotinylated-MraYBS, the biotinylated-MraYBS remains 62% activity measured by the HPLC-based MraY functional assay in 1 h reaction. […]
Here the recorded pKd is given for each entry.
Keep in mind that pKd stands for -log10 of concentration in molar terms.

compound="CC(=O)N[C@H]1[C@@H](OP(=O)(O)OP(=O)(O)OC[C@H]2O[C@@H](n3ccc(=O)[nH]c3=O)[C@H](O)[C@@H]2O)O[C@H](CO)[C@@H](O)[C@@H]1O[C@H](C)C(=O)N[C@@H](C)C(=O)N[C@H](CCC(=O)N[C@@H](CCCCN)C(=O)N[C@H](C)C(=O)N[C@H](C)C(=O)O)C(=O)O [Compound 5, Park’s nucleotide]" test_value=3.92
compound="CC(=O)N[C@H]1[C@@H](OP(=O)(O)OP(=O)(O)OC[C@H]2O[C@@H](n3cc(NC(=O)Cc4ccc(C)cc4)c(=O)[nH]c3=O)[C@H](O)[C@@H]2O)O[C@H](CO)[C@@H](O)[C@@H]1O[C@H](C)C(=O)N[C@@H](C)C(=O)O [Compound 20]" test_value=3.71
compound="CC(=O)N[C@H]1[C@@H](OP(=O)(O)OP(=O)(O)OC[C@H]2O[C@@H](n3ccc(=O)[nH]c3=O)[C@H](O)[C@@H]2O)O[C@H](CO)[C@@H](O)[C@@H]1O[C@H](C)C(=O)N[C@@H](C)C(=O)N[C@H](CCC(=O)N[C@@H](CCCCNC(=O)CCCCCNc1ccc([N+](=O)[O-])c2nonc12)C(=O)N[C@H](C)C(=O)N[C@H](C)C(=O)O)C(=O)O [Compound 6, NBD-Park’s nucleotide]" test_value=3.90
compound="CC(=O)N[C@H]1[C@@H](OP(=O)(O)OP(=O)(O)OC[C@H]2O[C@@H](n3cc(NC(=O)Cc4ccc(C)cc4)c(=O)[nH]c3=O)[C@H](O)[C@@H]2O)O[C@H](CO)[C@@H](O)[C@@H]1O[C@H](C)C(=O)N[C@@H](C)C(=O)N[C@H](CCC(=O)N[C@@H](CCCCN)C(=O)N[C@H](C)C(=O)N[C@H](C)C(=O)O)C(=O)O [Compound 22]" test_value=4.07

From here, focus on the item given below.
Q. Recorded pKd of CC(=O)Nc1cn([C@@H]2O[C@H](COP(=O)(O)OP(=O)(O)O[C@H]3O[C@H](CO)[C@@H](O)[C@H](O[C@H](C)C(=O)N[C@@H](C)C(=O)O)[C@H]3NC(C)=O)[C@@H](O)[C@H]2O)c(=O)[nH]c1=O [Compound 19] , please.
A. 3.55
